Molecular target: Amine oxidase [flavin-containing] A (Homo sapiens)
Sequence (P21397 whole entry): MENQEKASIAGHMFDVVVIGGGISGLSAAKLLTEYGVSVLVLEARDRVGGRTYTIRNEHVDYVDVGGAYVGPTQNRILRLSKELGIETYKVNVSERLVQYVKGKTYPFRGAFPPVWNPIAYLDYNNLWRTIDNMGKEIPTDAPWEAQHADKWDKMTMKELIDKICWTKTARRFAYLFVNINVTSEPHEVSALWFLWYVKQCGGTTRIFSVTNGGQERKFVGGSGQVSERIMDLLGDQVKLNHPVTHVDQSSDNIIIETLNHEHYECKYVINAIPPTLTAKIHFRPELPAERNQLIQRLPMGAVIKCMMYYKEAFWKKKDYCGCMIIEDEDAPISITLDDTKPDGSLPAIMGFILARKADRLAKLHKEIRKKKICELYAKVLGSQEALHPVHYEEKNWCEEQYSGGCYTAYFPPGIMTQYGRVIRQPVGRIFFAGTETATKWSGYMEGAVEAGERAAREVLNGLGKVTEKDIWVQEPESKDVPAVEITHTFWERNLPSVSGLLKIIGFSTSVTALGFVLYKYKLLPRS
Assay: Inhibition of human MAO-A expressed in baculovirus infected BTI-TN-5B1-4 insect cells using p-tyramine as substrate assessed as hydrogen peroxide production by fluorimetric method
measurement.kind: IC50 (µM)
The reply should contain only the number, in µM.

Worked examples follow.
>  <compound>
C(=N\Nc1nc(-c2ccc3ccccc3c2)cs1)/c1cccc2ccccc12

>  <target.of.assay>
Amine oxidase [flavin-containing] A (Homo sapiens)

>  <measured.value>
16.4

$$$$
>  <compound>
CC1CCC/C1=N\Nc1nc(-c2ccc3ccccc3c2)cs1 (configuration not stated)

>  <target.of.assay>
Amine oxidase [flavin-containing] A (Homo sapiens)

>  <measured.value>
2.6

$$$$

Item C(=N\Nc1nc(-c2ccc3ccccc3c2)cs1)/c1cccs1 with Amine oxidase [flavin-containing] A (Homo sapiens) - IC50?
2.71

Given the entry CCCC/C(CC)=N\Nc1nc(-c2ccc3ccccc3c2)cs1 , what IC50 was observed with Amine oxidase [flavin-containing] A (Homo sapiens)?
2.93

Recall the recorded IC50 for CCC(CC)=NNc1nc(-c2ccccc2)c(C)s1 with Amine oxidase [flavin-containing] A (Homo sapiens) and state it.
1.65

Lab note: need IC50 with Amine oxidase [flavin-containing] A (Homo sapiens) for entry Cc1sc(NN=C2CCCCCC2)nc1-c1ccccc1 , please look it up.
2.11

# get_value(readout= IC50, system= Amine oxidase [flavin-containing] A (Homo sapiens)) for Cc1sc(N/N=C/c2cccs2)nc1-c1ccccc1
3.38

Please tell me: IC50 of C(=N\Nc1nc(-c2ccc3ccccc3c2)cs1)/c1ccco1 , system Amine oxidase [flavin-containing] A (Homo sapiens)?
2.04

Report IC50 for CCC/C(C)=N\Nc1nc(-c2ccc3ccccc3c2)cs1 tested on Amine oxidase [flavin-containing] A (Homo sapiens).
1.81

What measured IC50 is associated with C(=N\Nc1nc(-c2ccc3ccccc3c2)cs1)/c1ccncc1 on Amine oxidase [flavin-containing] A (Homo sapiens)?
8.67

State its IC50 on Amine oxidase [flavin-containing] A (Homo sapiens): Cc1sc(N/N=C/c2ccncc2)nc1-c1ccccc1
8.29

# query: IC50 | item Cc1sc(N/N=C/c2cccnc2)nc1-c1ccccc1 | system: Amine oxidase [flavin-containing] A (Homo sapiens)
1.83

What value of IC50 on Amine oxidase [flavin-containing] A (Homo sapiens) does CCCCCC/C(C)=N\Nc1nc(-c2ccc3ccccc3c2)cs1 have?
15.8

Please state recorded IC50 (tested on Amine oxidase [flavin-containing] A (Homo sapiens)) of C/C(=N\Nc1nc(-c2ccccc2)c(C)s1)c1ccccn1
2.39
